- Experimental System: T1, human OPGbp [143-317] (human, UniProt O14788 143-317)
- T1 construct: also called OPGL
- T1 sequence (looked up): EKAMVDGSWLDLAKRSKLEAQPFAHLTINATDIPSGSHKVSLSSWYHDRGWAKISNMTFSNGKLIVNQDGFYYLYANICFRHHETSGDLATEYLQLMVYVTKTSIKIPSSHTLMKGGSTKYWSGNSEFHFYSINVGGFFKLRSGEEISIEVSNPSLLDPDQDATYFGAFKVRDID
- Assay Procedure: SPR (BIAcore), immobilized OPGbp [143-317]
Reported values of koff for individual entries
Number only, in s⁻¹; omit the unit.

Binder: “AT” antibody variant N98A (heavy chain CDR3) (antibody, name in Kabat numbering, V domains shown, not shown: human IgG1 CH1, hinge, CH2 and CH3) VH: QVQLVQSGAEVRKPGASVKVSCKASGYDFSNYAIHWVRQAPGQRLEWMGWINAGNGNTKFSQKFQGRITVTRDTAASTAYMELRSLRSEDTAVYYCARDSSAMVRGIIIAYYFDYWGQGTLVTVSS VL: EIVMTQSPSSLSASVGDRVTITCRASQSISRYLNWYQLKPGKAPRLLIYGASSLQSGVPSRFSGSGSGAEFTLTISSLQPEDIATYYCQHTRAFGQGTKVEIKR
koff / s⁻¹: 0.0009
//
Binder: “AT” antibody variant S97A (heavy chain CDR3) (antibody, name in Kabat numbering, V domains shown, not shown: human IgG1 CH1, hinge, CH2 and CH3) VH: QVQLVQSGAEVRKPGASVKVSCKASGYDFSNYAIHWVRQAPGQRLEWMGWINAGNGNTKFSQKFQGRITVTRDTAASTAYMELRSLRSEDTAVYYCARDSANMVRGIIIAYYFDYWGQGTLVTVSS VL: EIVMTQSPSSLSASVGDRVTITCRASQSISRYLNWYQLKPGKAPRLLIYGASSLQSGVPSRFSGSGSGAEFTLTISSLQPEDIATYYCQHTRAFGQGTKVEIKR
koff / s⁻¹: 0.0015
//
Binder: “AT” antibody variant S96A, S97A (heavy chain CDR3) (antibody, name in Kabat numbering, V domains shown, not shown: human IgG1 CH1, hinge, CH2 and CH3) VH: QVQLVQSGAEVRKPGASVKVSCKASGYDFSNYAIHWVRQAPGQRLEWMGWINAGNGNTKFSQKFQGRITVTRDTAASTAYMELRSLRSEDTAVYYCARDAANMVRGIIIAYYFDYWGQGTLVTVSS VL: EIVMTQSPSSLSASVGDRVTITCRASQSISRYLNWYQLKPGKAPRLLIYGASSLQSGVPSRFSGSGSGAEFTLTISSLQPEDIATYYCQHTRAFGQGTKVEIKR
koff / s⁻¹: 0.00284
//
Binder: “AT” antibody (full-length human IgG1) (antibody, V domains shown, Expressed in CHO cells; also called “AT” Ab; not shown: human IgG1 CH1, hinge, CH2 and CH3) VH: QVQLVQSGAEVRKPGASVKVSCKASGYDFSNYAIHWVRQAPGQRLEWMGWINAGNGNTKFSQKFQGRITVTRDTAASTAYMELRSLRSEDTAVYYCARDSSNMVRGIIIAYYFDYWGQGTLVTVSS VL: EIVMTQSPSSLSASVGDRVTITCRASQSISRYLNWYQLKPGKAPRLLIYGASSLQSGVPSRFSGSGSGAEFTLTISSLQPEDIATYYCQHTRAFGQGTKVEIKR
koff / s⁻¹: 0.002

Could you now consider this next binder?
Specify koff for “AT” antibody variant S96A (heavy chain CDR3) (antibody, name in Kabat numbering, V domains shown, not shown: human IgG1 CH1, hinge, CH2 and CH3) VH: QVQLVQSGAEVRKPGASVKVSCKASGYDFSNYAIHWVRQAPGQRLEWMGWINAGNGNTKFSQKFQGRITVTRDTAASTAYMELRSLRSEDTAVYYCARDASNMVRGIIIAYYFDYWGQGTLVTVSS VL: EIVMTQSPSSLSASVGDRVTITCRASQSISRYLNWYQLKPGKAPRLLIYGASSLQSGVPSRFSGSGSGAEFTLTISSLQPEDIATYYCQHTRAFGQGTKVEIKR and stop. 0.00064
